target: BRM (Homo sapiens); assay: ATPase catalytic activity assay of BRM (ADP-Glo); format: biochemical
Sequence (P51531 whole entry): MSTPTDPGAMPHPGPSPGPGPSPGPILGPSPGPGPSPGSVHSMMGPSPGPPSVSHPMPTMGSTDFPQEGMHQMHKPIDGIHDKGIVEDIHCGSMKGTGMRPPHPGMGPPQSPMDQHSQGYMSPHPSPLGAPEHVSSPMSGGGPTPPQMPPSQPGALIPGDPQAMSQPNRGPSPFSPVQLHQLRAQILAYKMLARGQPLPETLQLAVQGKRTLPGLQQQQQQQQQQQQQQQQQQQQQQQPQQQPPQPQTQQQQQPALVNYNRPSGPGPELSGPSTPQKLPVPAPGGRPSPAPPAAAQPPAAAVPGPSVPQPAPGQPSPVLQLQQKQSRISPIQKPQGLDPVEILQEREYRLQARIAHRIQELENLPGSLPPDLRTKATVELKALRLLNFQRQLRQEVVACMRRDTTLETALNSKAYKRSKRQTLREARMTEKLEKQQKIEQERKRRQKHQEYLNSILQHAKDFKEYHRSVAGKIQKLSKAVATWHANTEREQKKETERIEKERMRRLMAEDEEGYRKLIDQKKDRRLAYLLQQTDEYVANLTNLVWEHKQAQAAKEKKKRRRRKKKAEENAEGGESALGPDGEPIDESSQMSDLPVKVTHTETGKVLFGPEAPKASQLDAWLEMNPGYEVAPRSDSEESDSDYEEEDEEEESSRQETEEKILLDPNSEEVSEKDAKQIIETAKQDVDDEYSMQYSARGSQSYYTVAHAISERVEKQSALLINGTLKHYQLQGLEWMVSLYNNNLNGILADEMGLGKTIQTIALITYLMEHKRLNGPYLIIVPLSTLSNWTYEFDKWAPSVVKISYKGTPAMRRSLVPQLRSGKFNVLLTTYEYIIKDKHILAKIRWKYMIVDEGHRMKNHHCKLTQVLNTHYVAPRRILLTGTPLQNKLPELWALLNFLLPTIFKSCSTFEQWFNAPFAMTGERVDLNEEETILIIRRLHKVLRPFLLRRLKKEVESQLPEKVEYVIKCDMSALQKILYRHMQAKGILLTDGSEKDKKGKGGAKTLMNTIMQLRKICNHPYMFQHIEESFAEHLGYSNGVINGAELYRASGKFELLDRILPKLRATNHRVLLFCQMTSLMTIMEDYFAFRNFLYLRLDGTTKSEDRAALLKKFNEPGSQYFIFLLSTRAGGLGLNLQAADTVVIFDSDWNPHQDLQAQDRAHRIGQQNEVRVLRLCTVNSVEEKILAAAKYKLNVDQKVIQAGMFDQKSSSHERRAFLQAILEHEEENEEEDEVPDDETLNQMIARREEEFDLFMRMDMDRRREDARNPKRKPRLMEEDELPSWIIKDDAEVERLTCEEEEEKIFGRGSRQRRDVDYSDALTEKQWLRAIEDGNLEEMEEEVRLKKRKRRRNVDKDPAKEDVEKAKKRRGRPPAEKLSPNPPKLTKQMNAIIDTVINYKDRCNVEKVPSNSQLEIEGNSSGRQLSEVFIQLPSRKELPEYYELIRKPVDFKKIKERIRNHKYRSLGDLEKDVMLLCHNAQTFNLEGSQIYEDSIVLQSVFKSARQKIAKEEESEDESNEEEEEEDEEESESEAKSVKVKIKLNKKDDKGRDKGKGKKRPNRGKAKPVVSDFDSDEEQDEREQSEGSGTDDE

- compound: "CC1(CO)CCc2ccc(C(=O)NCC(=O)Nc3nc(-c4cccc(-c5ccncc5)c4)cs3)cc21 (centres unmarked) [Compound 102]"
  experimental target: "BRM (Homo sapiens)"
  BRM Max % Inhibition: ">95%"
- compound: "CC1(CO)CCc2ccc(C(=O)NCC(=O)Nc3nc(-c4cccc(-c5ccncc5)c4)cs3)cc21 (single isomer, unassigned) [Compound 105]"
  experimental target: "BRM (Homo sapiens)"
  BRM Max % Inhibition: ">95%"
- compound: "CC(C)(CO)c1cccc(C(=O)NCC(=O)Nc2nc(-c3cccc(N4CCC(O)CC4)c3)cs2)c1"
  experimental target: "BRM (Homo sapiens)"
  BRM Max % Inhibition: ">95%"
- compound: "C[C@@]1(C#N)COCc2ccc(C(=O)NCC(=O)Nc3nc(-c4cccc(C(F)F)c4)cs3)cc21"
  experimental target: "BRM (Homo sapiens)"
  BRM Max % Inhibition: ">95%"
- compound: "CC(C)S(=O)(=O)c1cccc(C(=O)NCC(=O)Nc2nc(-c3cccc(CO[C@H]4CC[C@H](O)CC4)c3)cs2)c1"
  experimental target: "BRM (Homo sapiens)"
  BRM Max % Inhibition: ">90%"
